Assay: Bendamustine chemical stability in formulations with amphiphilic anionic agents and phosphate buffer (HPLC, first order kinetics)
Format: physicochemical
Details: 0.6 mg/mL bendamustine, 1% (w/v) aqueous amphiphilic anionic agent, 6 mM phosphate buffer pH 7.2, 25° C.; read-out: decomposition half time (T½) of bendamustine
Where a name gives a salt, the structure may show the parent alone.
observable: half-life at 0.6 mg/mL (min)
Numbers only, in min.

**Query** # lookup: half-life at 0.6 mg/mL of Cn1c(CCCC(=O)O)nc2cc(N(CCCl)CCCl)ccc21 [Control (phosphate buffer), bendamustine hydrochloride]
**Result** 44

Where do the numbers come from? From patent US8389558B2.
